Consider molecules characterized by their Toxicity (Luciferase, 6d) with P4 CCR5-luc cells.

Which Toxicity (Luciferase, 6d) is reported for this molecule? Cc1cn(C2COC(COP(=O)(NC(C)C(=O)OC3CCCCC3)Oc3ccccc3)O2)c(=O)[nH]c1=O (mixture of isomers)
>100

Which Toxicity (Luciferase, 6d) is reported for this molecule? Cc1cn(C2COC(COP(=O)(NC(C)C(=O)OC3CCC3)Oc3ccccc3)O2)c(=O)[nH]c1=O (mixture of isomers)
>100

Which Toxicity (Luciferase, 6d) is reported for this molecule? COC(=O)C(CC(C)C)NP(=O)(OCC1OCC(n2cc(C)c(=O)[nH]c2=O)O1)Oc1ccccc1 (mixture of isomers)
>100
